Quick list: melting temperature per entry.
System: HeLa Kyoto
assay.text: melting temperature (median over replicates), in situ; higher = more thermally stable
condition.label: cell cycle stage: mitosis
Enter the number, and then the unit.

INSERT INTO assay_data (sequence_code, result_type, assay_value) VALUES
  ('MALRVVRSVRALLCTLRAVPSPAAPCPPRPWQLGVGAVRTLRTGPALLSVRKFTEKHEWVTTENGIGTVGISNFAQEALGDVVYCSLPEVGTKLNKQDEFGALESVKAASELYSPLSGEVTEINEALAENPGLVNKSCYEDGWLIKMTLSNPSELDELMSEEAYEKYIKSIEE [GCSH]', 'melting temperature', '56.8 °C'),
  ('MAAPPGEYFSVGSQVSCRTCQEQRLQGEVVAFDYQSKMLALKCPSSSGKPNHADILLINLQYVSEVEIINDRTETPPPLASLNVSKLASKARTEKEEKLSQAYAISAGVSLEGQQLFQTIHKTIKDCKWQEKNIVVMEEVVITPPYQVENCKGKEGSALSHVRKIVEKHFRDVESQKILQRSQAQQPQKEAALSS [LSM12]', 'melting temperature', '52.3 °C'),
  ('MAAAVGRLLRASVARHVSAIPWGISATAALRPAACGRTSLTNLLCSGSSQAKLFSTSSSCHAPAVTQHAPYFKGTAVVNGEFKDLSLDDFKGKYLVLFFYPLDFTFVCPTEIVAFSDKANEFHDVNCEVVAVSVDSHFSHLAWINTPRKNGGLGHMNIALLSDLTKQISRDYGVLLEGSGLALRGLFIIDPNGVIKHLSVNDLPVGRSVEETLRLVKAFQYVETHGEVCPANWTPDSPTIKPSPAASKEYFQKVNQ [PRDX3]', 'melting temperature', '57.9 °C');

# next sequence below
q: I have this sequence here, MERFVVTAPPARNRSKTALYVTPLDRVTEFGGELHEDGGKLFCTSCNVVLNHVRKSAISDHLKSKTHTKRKAEFEEQNVRKKQRPLTASLQCNSTAQTEKVSVIQDFVKMCLEANIPLEKADHPAVRAFLSRHVKNGGSIPKSDQLRRAYLPDGYENENQLLNSQDC [CGGBP1] , and I need its recorded melting temperature.
a: 51.8 °C

====

Tested on: HeLa Kyoto
assay.text: thermal stability score vs G1/S (z-score of summed log2 fold changes over temperatures); higher = more thermally stable than in G1/S
condition.label: cell cycle stage: early G1 (4.5 h after nocodazole release)
Definition: the class of an entry is the range in lower level: < -0.4; middle level: ≥ -0.4 and < 0.8; upper level: ≥ 0.8 that contains its thermal stability score.

INSERT INTO measurements (sequence_code, category) VALUES
  ('MDGDGDPESVGQPEEASPEEQPEEASAEEERPEDQQEEEAAAAAAYLDELPEPLLLRVLAALPAAELVQACRLVCLRWKELVDGAPLWLLKCQQEGLVPEGGVEEERDHWQQFYFLSKRRRNLLRNPCGEEDLEGWCDVEHGGDGWRVEELPGDSGVEFTHDESVKKYFASSFEWCRKAQVIDLQAEGYWEELLDTTQPAIVVKDWYSGRSDAGCLYELTVKLLSEHENVLAEFSSGQVAVPQDSDGGGWMEISHTFTDYGPGVRFVRFEHGGQDSVYWKGWFGARVTNSSVWVEP [FBXO2]', 'middle level'),
  ('MAPARLFALLLFFVGGVAESIRETEVIDPQDLLEGRYFSGALPDDEDVVGPGQESDDFELSGSGDLDDLEDSMIGPEVVHPLVPLDNHIPERAGSGSQVPTEPKKLEENEVIPKRISPVEESEDVSNKVSMSSTVQGSNIFERTEVLAALIVGGIVGILFAVFLILLLMYRMKKKDEGSYDLGKKPIYKKAPTNEFYA [SDC4]', 'upper level'),
  ('MVLIKEFRVVLPCSVQEYQVGQLYSVAEASKNETGGGEGIEVLKNEPYEKDGEKGQYTHKIYHLKSKVPAFVRMIAPEGSLVFHEKAWNAYPYCRTIVTNEYMKDDFFIKIETWHKPDLGTLENVHGLDPNTWKTVEIVHIDIADRSQVEPADYKADEDPALFQSVKTKRGPLGPNWKKELANSPDCPQMCAYKLVTIKFKWWGLQSKVENFIQKQEKRIFTNFHRQLFCWIDKWIDLTMEDIRRMEDETQKELETMRKRGSVRGTSAADV [PITPNB]', 'upper level'),
  ('MARVLKAAAANAVGLFSRLQAPIPTVRASSTSQPLDQVTGSVWNLGRLNHVAIAVPDLEKAAAFYKNILGAQVSEAVPLPEHGVSVVFVNLGNTKMELLHPLGRDSPIAGFLQKNKAGGMHHICIEVDNINAAVMDLKKKKIRSLSEEVKIGAHGKPVIFLHPKDCGGVLVELEQA [MCEE]', 'middle level'),
  ('MKAGATSMWASCCGLLNEVMGTGAVRGQQSAFAGATGPFRFTPNPEFSTYPPAATEGPNIVCKACGLSFSVFRKKHVCCDCKKDFCSVCSVLQENLRRCSTCHLLQETAFQRPQLMRLKVKDLRQYLILRNIPIDTCREKEDLVDLVLCHHGLGSEDDMDTSSLNSSRSQTSSFFTRSFFSNYTAPSATMSSFQGELMDGDQTSRSGVPAQVQSEITSANTEDDDDDDDEDDDDEEENAEDRNPGLSKERVRASLSDLSSLDDVEGMSVRQLKEILARNFVNYSGCCEKWELVEKVNRLYKENEENQKSYGERLQLQDEEDDSLCRICMDAVIDCVLLECGHMVTCTKCGKRMSECPICRQYVVRAVHVFKS [RNF34]', 'middle level'),
  ('MERAVPLAVPLGQTEVFQALQRLHMTIFSQSVSPCGKFLAAGNNYGQIAIFSLSSALSSEAKEESKKPVVTFQAHDGPVYSMVSTDRHLLSAGDGEVKAWLWAEMLKKGCKELWRRQPPYRTSLEVPEINALLLVPKENSLILAGGDCQLHTMDLETGTFTRVLRGHTDYIHCLALRERSPEVLSGGEDGAVRLWDLRTAKEVQTIEVYKHEECSRPHNGRWIGCLATDSDWMVCGGGPALTLWHLRSSTPTTIFPIRAPQKHVTFYQDLILSAGQGRCVNQWQLSGELKAQVPGSSPGLLSLSLNQQPAAPECKVLTAAGNSCRVDVFTNLGYRAFSLSF [THOC6]', 'lower level'),
  ('MEQLRAAARLQIVLGHLGRPSAGAVVAHPTSGTISSASFHPQQFQYTLDNNVLTLEQRKFYEENGFLVIKNLVPDADIQRFRNEFEKICRKEVKPLGLTVMRDVTISKSEYAPSEKMITKVQDFQEDKELFRYCTLPEILKYVECFTGPNIMAMHTMLINKPPDSGKKTSRHPLHQDLHYFPFRPSDLIVCAWTAMEHISRNNGCLVVLPGTHKGSLKPHDYPKWEGGVNKMFHGIQDYEENKARVHLVMEKGDTVFFHPLLIHGSGQNKTQGFRKAISCHFASADCHYIDVKGTSQENIEKEVVGIAHKFFGAENSVNLKDIWMFRARLVKGERTNL [PHYH]', 'upper level'),
  ('MKQDASRNAAYTVDCEDYVHVVEFNPFENGDSGNLIAYGGNNYVVIGTCTFQEEEADVEGIQYKTLRTFHHGVRVDGIAWSPETRLDSLPPVIKFCTSAADMKIRLFTSDLQDKNEYKVLEGHTDFINGLVFDPKEGQEIASVSDDHTCRIWNLEGVQTAHFVLHSPGMSVCWHPEETFKLMVAEKNGTIRFYDLLAQQAILSLESEQVPLMSAHWCLKNTFKVGAVAGNDWLIWDITRSSYPQNKRPVHMDRACLFRWSTISENLFATTGYPGKMASQFQIHHLGHPQPILMGSVAVGSGLSWHRTLPLCVIGGDHKLLFWVTEV [NUP37]', 'lower level');

q: Hello team, could you let me know which band the following sequence falls into: MAALKSWLSRSVTSFFRYRQCLCVPVVANFKKRCFSELIRPWHKTVTIGFGVTLCAVPIAQKSEPHSLSSEALMRRAVSLVTDSTSTFLSQTTYALIEAITEYTKAVYTLTSLYRQYTSLLGKMNSEEEDEVWQVIIGARAEMTSKHQEYLKLETTWMTAVGLSEMAAEAAYQTGADQASITARNHIQLVKLQVEEVHQLSRKAETKLAEAQIEELRQKTQEEGEERAESEQEAYLRED [DIABLO]
a: lower level

====

melting temperature listing for selected sequences.
Test system: HeLa Kyoto
assay.text: melting temperature (median over replicates), in situ; higher = more thermally stable
condition.label: cell cycle stage: mitosis
Return type: number; implicit unit °C.

Sample answers from the record:
INSERT INTO results (sequence_code, uom, assay_value) VALUES
  ('MPKRKVSSAEGAAKEEPKRRSARLSAKPPAKVEAKPKKAAAKDKSSDKKVQTKGKRGAKGKQAEVANQETKEDLPAENGETKTEESPASDEAGEKEAKSD [HMGN1]', '°C', 56.4),
  ('MVDLTQVMDDEVFMAFASYATIILSKMMLMSTATAFYRLTRKVFANPEDCVAFGKGENAKKYLRTDDRVERVRRAHLNDLENIIPFLGIGLLYSLSGPDPSTAILHFRLFVGARIYHTIAYLTPLPQPNRALSFFVGYGVTLSMAYRLLKSKLYL [MGST1]', '°C', 58);

Pending sequence:
q: Param item = MVSHSELRKLFYSADAVCFDVDSTVIREEGIDELAKICGVEDAVSEMTRRAMGGAVPFKAALTERLALIQPSREQVQRLIAEQPPHLTPGIRELVSRLQERNVQVFLISGGFRSIVEHVASKLNIPATNVFANRLKFYFNGEYAGFDETQPTAESGGKGKVIKLLKEKFHFKKIIMIGDGATDMEACPPADAFIGFGGNVIRQQVKDNAKWYITDFVELLGELEE [PSPH] ; retrieve measured melting temperature.
a: 58.2
